# SYSTEM NAME: human DGKζ (Homo sapiens)
# Construct: TVMV protease cleavage site (C); Hexa-His (C); made in house; host or cells: Sf9 insect cells (baculovirus, Bac-to-Bac)
# Sequence (Q13574 with tags, fused parts or gaps isoform Q13574-4): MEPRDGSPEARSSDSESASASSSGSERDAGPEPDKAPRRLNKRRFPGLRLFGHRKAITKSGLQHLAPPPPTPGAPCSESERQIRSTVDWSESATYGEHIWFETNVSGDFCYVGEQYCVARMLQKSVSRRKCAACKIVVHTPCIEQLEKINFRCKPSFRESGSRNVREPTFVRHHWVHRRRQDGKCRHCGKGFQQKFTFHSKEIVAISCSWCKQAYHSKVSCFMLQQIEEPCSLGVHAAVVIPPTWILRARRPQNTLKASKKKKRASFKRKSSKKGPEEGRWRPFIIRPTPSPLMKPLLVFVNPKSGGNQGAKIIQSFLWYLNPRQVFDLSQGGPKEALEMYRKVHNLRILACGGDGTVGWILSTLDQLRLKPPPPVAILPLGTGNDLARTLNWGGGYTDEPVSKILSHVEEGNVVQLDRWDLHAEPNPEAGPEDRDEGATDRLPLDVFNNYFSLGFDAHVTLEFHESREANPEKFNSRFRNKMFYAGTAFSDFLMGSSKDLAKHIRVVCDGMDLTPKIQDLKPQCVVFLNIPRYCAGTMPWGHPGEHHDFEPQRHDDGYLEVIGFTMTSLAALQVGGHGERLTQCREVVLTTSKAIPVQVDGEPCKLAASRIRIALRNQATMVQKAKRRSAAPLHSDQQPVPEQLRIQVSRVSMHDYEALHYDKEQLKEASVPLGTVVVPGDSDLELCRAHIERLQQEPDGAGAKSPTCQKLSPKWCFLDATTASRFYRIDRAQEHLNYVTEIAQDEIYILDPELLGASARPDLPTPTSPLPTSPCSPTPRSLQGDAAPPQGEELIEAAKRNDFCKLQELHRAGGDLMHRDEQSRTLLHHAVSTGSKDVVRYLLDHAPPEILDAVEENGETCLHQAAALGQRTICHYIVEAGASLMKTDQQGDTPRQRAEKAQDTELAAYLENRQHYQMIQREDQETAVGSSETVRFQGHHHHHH
# TEST: DGKζ LIPGLO assay (extruded liposome substrate), in vitro DGK inhibition
# Format: biochemical
# MEASUREMENT SETUP: liposome (LIPGLO) assay; read-out: DGKz LIPGLO IC50
OBSERVABLE: IC50 (nM)

Known IC50 results, listed for orientation:
Any idea what its IC50 is? The molecule is CC(c1ccccc1OC(F)(F)F)N1C[C@H](C)N(c2cc(=O)n(C)c3ccc(C#N)nc23)C[C@H]1C (single isomer, unassigned) [Example 1213]
3600

And then CC[C@H]1CN(C(c2ccc(F)cc2)c2ccc(Cl)cc2)[C@H](C)CN1c1cc(=O)n(C)c2ccc(C#N)nc12 (stereo partly shown) [Example 1127] , what is it?
2400

And then C[C@@H]1CN(c2cc(=O)n(C)c3ccc(C#N)nc23)[C@@H](C)CN1C(c1ccc(F)cc1)c1ccns1 (stereo partly shown) [Example 720] , what is it?
940

And then C[C@@H]1CN(c2cc(=O)n(C)c3ccc(C#N)nc23)[C@@H](C)CN1C(c1ccc(F)cc1)c1cncc(F)c1 (single isomer, unassigned) [Example 415] , what is it?
19000

And then Cc1ccc(C(c2cccc(Cl)c2)N2C[C@H](C)N(c3cc(=O)n(C)c4ccc(C#N)nc34)C[C@H]2C)nc1 (stereo partly shown) [Example 398] , what is it?
1400

I: C[C@H]1CN(C(c2ccc(F)cc2)c2ccc(F)cc2)[C@H](CN2CCOCC2)CN1c1cc(=O)n(C)c2ccc(C#N)nc12
II: Cc1ccc(C(c2cncc(F)c2)N2C[C@H](C)N(c3cc(=O)n(C)c4ccc(C#N)nc34)C[C@H]2C)cc1 (single isomer, unassigned) [Example 391]
III: C[C@@H]1CN(c2cc(=O)n(C)c3ccc(C#N)nc23)[C@@H](C)CN1C(c1ccc(F)cc1)c1cccc(F)c1 (stereo partly shown) [Example 293]
IV: CCc1ccc(C(c2cccc(F)c2)N2C[C@H](C)N(c3cc(=O)n(C)c4ccc(C#N)nc34)C[C@H]2C)nc1 (single isomer, unassigned) [Example 351]
V: C[C@@H]1CN(c2c(C3CC3)c(=O)n(C)c3ccc(C#N)nc23)[C@@H](C)CN1C(c1ccc(F)cc1)c1ccc(F)cc1
// sort entries: IC50, high to low Return value: ordered labels per request.
V, I, II, IV, III
(V: 130000 nM, I: 6600 nM, II: 2400 nM, IV: 1300 nM, III: 160 nM)

###

# SYSTEM NAME: human DGKζ (Homo sapiens)
# Construct: TVMV protease cleavage site (C); Hexa-His (C); made in house; host or cells: Sf9 insect cells (baculovirus, Bac-to-Bac)
# TEST: DGKζ LIPGLO assay (extruded liposome substrate), in vitro DGK inhibition
# Format: biochemical
# MEASUREMENT SETUP: liposome (LIPGLO) assay; read-out: DGKz LIPGLO IC50
OBSERVABLE: IC50 (nM)

Any idea what its IC50 is? The molecule is C[C@@H]1CN(c2c([N+](=O)[O-])c(=O)n(C)c3ccc(C#N)nc23)[C@@H](C)CN1C(c1ccc(F)cc1)c1ccc(F)cc1 [Example 161]
29000

And then C[C@@H]1CN(c2cc(=O)n(C)c3ccc(C#N)nc23)[C@@H](C)CN1C(c1ccc(F)cc1)c1ccnc(C(C)(C)C)n1 (single isomer, unassigned) [Example 408] , what is it?
800

And then Cc1ccnc(C(c2ccc(Cl)cc2)N2C[C@H](C)N(c3cc(=O)n(C)c4ccc(C#N)nc34)C[C@H]2C)c1 (single isomer, unassigned) [Example 362] , what is it?
340

And then C[C@@H]1CN(c2c(C#N)c(=O)n(C)c3ccc(C#N)nc23)CCN1C(c1ccc(F)cc1)c1cn(C)cn1 (single isomer, unassigned) [Example 1026] , what is it?
65000

And then CC[C@H]1CN(C(c2ccc(Cl)cc2)c2ccc(F)cn2)[C@H](C)CN1c1cc(=O)n(C)c2ccc(C#N)nc12 (single isomer, unassigned) [Example 1129] , what is it?
1800

P: Cc1ccc(C(c2ccc(C#N)cc2)N2C[C@H](C)N(c3cc(=O)n(C)c4ccc(C#N)nc34)C[C@H]2C)nc1 (single isomer, unassigned) [Example 360]
Q: CC(c1cc(C(C)(C)C)on1)N1C[C@H](C)N(c2cc(=O)n(C)c3ccc(C#N)nc23)C[C@H]1C (single isomer, unassigned) [Example 1283]
R: CC(c1nc(C2CC2)cs1)N1C[C@H](C)N(c2cc(=O)n(C)c3ccc(C#N)nc23)C[C@H]1C (single isomer, unassigned) [Example 647]
S: C[C@@H]1CN(c2cc(=O)n(C)c3ccc(C#N)nc23)[C@@H](C)CN1C(c1ccc(F)cc1)c1cnsc1 (single isomer, unassigned) [Example 715]
Order the entries by their reported IC50, beginning at the minimum. Return value: ordered labels per request.
R, P, S, Q
(R: 75 nM, P: 2500 nM, S: 3900 nM, Q: 7600 nM)

Data provenance is patent US10669272B2.
